- experiment: Maximum concentration was evaluated against Cynomolgus monkey at a dose of 15 mg/kg after po administration
- Type: ADME, organism-based
- Parameters: dose 15 mg/kg, route oral
- conditions: cercopithecidae, in vivo
assay.readout: Cmax (ng/mL)
Response body: numeric value in ng/mL, unit text excluded.

Can you share its Cmax? I mean this compound: CS(=O)(=O)c1ccc(-c2cc(Br)sc2-c2ccc(F)cc2)cc1 [DUP-697] 698

* * *

Parameter: Cmax. Scope: all listed entries.
- experiment: Maximum concentration in plasma was evaluated in Sprague-Dawley rats at a dose of 15 mg/kg after po administration
- Assay type: ADME, organism-based
- Design: dose 15 mg/kg, route oral
- conditions: rat
Unit µg/mL implied. Number only.

>  <compound>
c1ccc(-c2ccsc2-c2ccccc2)cc1

>  <Cmax (µg/mL)>
0.1

$$$$
>  <compound>
CS(=O)(=O)c1ccc(-c2ccccc2-c2ccccc2)cc1

>  <Cmax (µg/mL)>
1.43

$$$$
>  <compound>
Cc1cc(-c2ccc(S(C)(=O)=O)cc2)c(-c2ccc(F)cc2)s1

>  <Cmax (µg/mL)>
0.02

$$$$
>  <compound>
CS(=O)(=O)c1ccc(-c2cc(Br)sc2-c2ccc(F)cc2)cc1 [DUP-697]

>  <Cmax (µg/mL)>
2.4

$$$$

Continue with the compound presented below.
# get_value(readout='Cmax', item= CS(=O)(=O)c1ccc(-c2ccsc2-c2ccc(F)cc2)cc1 ) 0.008

* * *

- experiment: Half life period was evaluated against Cynomolgus monkey at a dose of 15 mg/kg after po administration
- Format: ADME, organism-based
- Design: dose 15 mg/kg, route oral
- conditions: cercopithecidae, in vivo
assay.readout: half-life

Which value of half-life has been reported for CS(=O)(=O)c1ccc(-c2cc(Br)sc2-c2ccc(F)cc2)cc1 [DUP-697] in the records? 31.8 h

* * *

- experiment: Oral bioavailability in rat (Sprague-Dawley) (dose 15 mg/kg)
- Format: ADME, organism-based
- conditions: in vivo
# bioavailability >= 20% gives MET, anything below gives NOT MET

Solved entries (count: 3):
>  <molecule.smiles>
Cc1cc(-c2ccc(S(C)(=O)=O)cc2)c(-c2ccc(F)cc2)s1

>  <assigned.label>
NOT MET

$$$$
>  <molecule.smiles>
CS(=O)(=O)c1ccc(-c2ccsc2-c2ccc(F)cc2)cc1

>  <assigned.label>
NOT MET

$$$$
>  <molecule.smiles>
CS(=O)(=O)c1ccc(-c2ccccc2-c2ccccc2)cc1

>  <assigned.label>
MET

$$$$

// switching to the query compound
Could you please find out whether CS(=O)(=O)c1ccc(-c2cc(Br)sc2-c2ccc(F)cc2)cc1 has bioavailability that meets 20% or exceeds it? MET

* * *

Measured Vd, listed per entry.
- experiment: Volume of distribution was evaluated in Sprague-Dawley rats at a dose of 15 mg/kg after iv administration
- Type: ADME, organism-based
- Set-up: dose 15 mg/kg, route intravenous
- conditions: rat, in vivo, read-out: Vss
Reply with just the number (in L/kg).

Looking for the measured Vd of CS(=O)(=O)c1ccc(-c2ccccc2-c2ccccc2)cc1 , can you help? 3.08

* * *

- experiment: Maximum concentration was evaluated against man at a dose of 10 mg/kg after po administration
- Type: ADME, organism-based
- Parameters: dose 10 mg/kg, route oral
- conditions: human, in vivo
assay.readout: Cmax (ng/mL)
Enter your answer as a number in ng/mL; do not include the unit.

Need Cmax, item CS(=O)(=O)c1ccc(-c2cc(Br)sc2-c2ccc(F)cc2)cc1 [DUP-697] 60.5

* * *

Listed here: items and their measured half-life.
- experiment: Half life period was evaluated against Sprague-Dawley rats at a dose of 15 mg/kg after iv administration
- Format: ADME, organism-based
- Set-up: dose 15 mg/kg, route intravenous
- conditions: rat, in vivo
Respond numerically; units are min and should not be typed.

Please review the entries below; each comes with its answer.
>  <molecule>
CS(=O)(=O)c1ccc(-c2ccccc2-c2ccccc2)cc1

>  <recorded.value>
102

$$$$
>  <molecule>
CS(=O)(=O)c1ccc(-c2ccsc2-c2ccc(F)cc2)cc1

>  <recorded.value>
858

$$$$
>  <molecule>
c1ccc(-c2ccsc2-c2ccccc2)cc1

>  <recorded.value>
296

$$$$

# query: half-life of entry CS(=O)(=O)c1ccc(-c2cc(Br)sc2-c2ccc(F)cc2)cc1 [DUP-697] 1320

Moving on to the next molecule: Cc1cc(-c2ccc(S(C)(=O)=O)cc2)c(-c2ccc(F)cc2)s1 1160

* * *

- experiment: Time taken to reach maximum concentration in plasma was evaluated in Sprague-Dawley rats at a dose of 15 mg/kg after po administration
- Type: ADME, organism-based
- Design: dose 15 mg/kg, route oral
- conditions: rat
# maps each entry to its log10 Tmax
Quick note: numbers are log10 of Tmax, with h as the unit.

>  <compound>
CS(=O)(=O)c1ccc(-c2cc(Br)sc2-c2ccc(F)cc2)cc1 [DUP-697]

>  <assay.readout>
log10 Tmax

>  <recorded.value>
0.90

$$$$
>  <compound>
CS(=O)(=O)c1ccc(-c2ccccc2-c2ccccc2)cc1

>  <assay.readout>
log10 Tmax

>  <recorded.value>
-0.60

$$$$

So what's the measured log10 Tmax for this one? Cc1cc(-c2ccc(S(C)(=O)=O)cc2)c(-c2ccc(F)cc2)s1 -0.15

And the next one, CS(=O)(=O)c1ccc(-c2ccsc2-c2ccc(F)cc2)cc1 ? 0.60

Try this compound next: c1ccc(-c2ccsc2-c2ccccc2)cc1 0.62

* * *

IC50 values for the compounds below.
- assay.system: Prostaglandin G/H synthase 2 (Homo sapiens, UniProt P35354)
- Sequence (P35354 whole entry): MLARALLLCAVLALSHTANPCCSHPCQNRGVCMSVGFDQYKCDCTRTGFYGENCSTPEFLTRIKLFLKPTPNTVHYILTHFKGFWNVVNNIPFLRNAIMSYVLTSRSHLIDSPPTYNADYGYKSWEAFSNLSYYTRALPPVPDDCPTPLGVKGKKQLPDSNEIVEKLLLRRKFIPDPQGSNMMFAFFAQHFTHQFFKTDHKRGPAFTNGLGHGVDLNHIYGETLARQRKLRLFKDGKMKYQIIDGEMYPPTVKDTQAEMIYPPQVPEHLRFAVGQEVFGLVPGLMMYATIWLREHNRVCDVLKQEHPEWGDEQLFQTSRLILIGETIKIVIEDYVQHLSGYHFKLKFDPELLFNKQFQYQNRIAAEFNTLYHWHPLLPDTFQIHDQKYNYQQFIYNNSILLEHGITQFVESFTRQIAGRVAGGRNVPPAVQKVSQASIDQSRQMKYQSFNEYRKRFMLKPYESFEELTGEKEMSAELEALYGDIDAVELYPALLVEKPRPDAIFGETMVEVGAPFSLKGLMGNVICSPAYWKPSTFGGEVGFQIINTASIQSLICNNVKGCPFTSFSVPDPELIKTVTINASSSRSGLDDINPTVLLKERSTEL

>  <molecule.smiles>
CS(=O)(=O)c1ccc(-c2c(-c3ccccc3)sc3c2CCCC3)cc1

>  <IC50>
19 µM

$$$$

Reported IC50 for c1ccc(-c2ccsc2-c2ccccc2)cc1 : what is it? > 300 µM

Here is the next compound: CS(=O)(=O)c1ccc(-c2cc([N+](=O)[O-])sc2-c2ccc(F)cc2)cc1 14 µM

* * *

- experiment: Maximum time was evaluated against Cynomolgus monkey at a dose of 15 mg/kg after po administration
- Format: ADME, organism-based
- Set-up: dose 15 mg/kg, route oral
- conditions: cercopithecidae, in vivo
assay.readout: Tmax (h)
Only the number, expressed in h, is required.

I'd like to know its Tmax. The molecule in question is CS(=O)(=O)c1ccc(-c2cc(Br)sc2-c2ccc(F)cc2)cc1 24

* * *

- experiment: Bioavailability was evaluated against Beagle dog at a dose of 15 mg/kg after po administration
- Type: ADME, organism-based, Canis lupus familiaris
- conditions: in vivo
assay.readout: bioavailability (%)
Enter your answer as a number in %; do not include the unit.

What measured bioavailability goes with CS(=O)(=O)c1ccc(-c2cc(Br)sc2-c2ccc(F)cc2)cc1 [DUP-697] ? 4.4

* * *

- experiment: Plasma clearance was evaluated in Sprague-Dawley rats at a dose of 15 mg/kg after iv administration
- Assay type: ADME, organism-based
- Design: dose 15 mg/kg, route intravenous
- conditions: rat
assay.readout: clearance (mL/min/kg)
Reply numerically in mL/min/kg, unit not repeated.

Please review the following examples before continuing.
>  <molecule.smiles>
CS(=O)(=O)c1ccc(-c2cc(Br)sc2-c2ccc(F)cc2)cc1

>  <clearance (mL/min/kg)>
3.63

$$$$
>  <molecule.smiles>
CS(=O)(=O)c1ccc(-c2ccccc2-c2ccccc2)cc1

>  <clearance (mL/min/kg)>
35.8

$$$$
>  <molecule.smiles>
Cc1cc(-c2ccc(S(C)(=O)=O)cc2)c(-c2ccc(F)cc2)s1

>  <clearance (mL/min/kg)>
28.2

$$$$
>  <molecule.smiles>
CS(=O)(=O)c1ccc(-c2ccsc2-c2ccc(F)cc2)cc1

>  <clearance (mL/min/kg)>
158

$$$$

Field request: clearance | item: c1ccc(-c2ccsc2-c2ccccc2)cc1 51.3
